Biological target: T1, TNFR2-His (Sino Biological, 10417-H08H, NP_001057.1 Met1-Asp257, with multi-histidine tag expressed on … (human, UniProt P20333 23-257))
T1 construct: range 1-257; Bought protein; also called recombinant human TNFR2 protein; TNFR2-His antigen; not shown: C-terminal multi-histidine tag
T1 sequence (looked up): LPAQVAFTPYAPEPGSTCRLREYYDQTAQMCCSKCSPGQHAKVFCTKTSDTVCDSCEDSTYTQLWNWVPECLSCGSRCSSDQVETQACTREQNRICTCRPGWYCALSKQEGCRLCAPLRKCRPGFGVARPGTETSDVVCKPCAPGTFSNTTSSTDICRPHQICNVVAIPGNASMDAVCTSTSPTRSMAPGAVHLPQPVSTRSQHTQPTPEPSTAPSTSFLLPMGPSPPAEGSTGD
Test: BLI, antibody captured on AHC probe, TNFR2-His in solution
observable: kon (M⁻¹ s⁻¹)
Your answer is read as M⁻¹ s⁻¹, so omit the unit and give the number.

11G2huVH1 + huVL1(P07262) (antibody, V domains shown, Humanized 11G2) VH: QVQLVQSGAEVKKPGASVKLSCKASGYTFITYDINWVRQAPGQGLEWIGWIYPRDGNTQFNENFKGKATMTVDESTSTAYMEVRSLRSDDTAVYYCARGDRDYGYFDVWGQGTTVTVSS VL: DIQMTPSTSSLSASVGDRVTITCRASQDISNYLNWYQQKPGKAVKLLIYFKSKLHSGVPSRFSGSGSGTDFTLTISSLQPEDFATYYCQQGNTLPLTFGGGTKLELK
239000
11G2huVH1 + huVL3(P07271) (antibody, V domains shown, Humanized 11G2) VH: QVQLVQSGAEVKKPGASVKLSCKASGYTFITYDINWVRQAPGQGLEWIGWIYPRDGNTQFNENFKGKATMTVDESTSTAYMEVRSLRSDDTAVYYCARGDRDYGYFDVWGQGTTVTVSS VL: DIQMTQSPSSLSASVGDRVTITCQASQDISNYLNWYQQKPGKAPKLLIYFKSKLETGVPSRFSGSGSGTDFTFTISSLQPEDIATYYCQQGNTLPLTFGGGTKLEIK
299000

Turning now to a further record.
Quick note, kon for 11G2huVH5 + huVL2(P07270) (antibody, V domains shown, Humanized 11G2) VH: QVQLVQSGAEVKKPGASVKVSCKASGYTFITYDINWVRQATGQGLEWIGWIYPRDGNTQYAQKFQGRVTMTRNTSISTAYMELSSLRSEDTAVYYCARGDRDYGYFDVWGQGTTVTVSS VL: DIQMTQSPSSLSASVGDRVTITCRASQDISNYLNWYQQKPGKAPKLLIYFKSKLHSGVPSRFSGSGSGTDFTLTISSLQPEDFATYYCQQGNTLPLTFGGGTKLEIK landed at 326000

Data provenance: patent US20240392024A1
